- ASSAY METHOD TEXT: 1-Octanol-citrate buffer partition coefficient, log P of the compound at pH 4.0 by UV spectrometry
- Format: physicochemical
logD values by entry
RESULT TYPE: logD

• COCCOCC(O)COc1ccc2oc3ccc(C(=O)O)cc3c(=O)c2c1 (stereo not drawn) = 2.08
• O=C(O)c1ccc2oc3ccc(OCC(O)CSC4CCCCC4)cc3c(=O)c2c1 (stereo not drawn) = 2.95
• O=C(O)c1ccc2oc3ccc(OCC(O)CSCCO)cc3c(=O)c2c1 (stereo not drawn) = 2.32
• O=C(O)c1ccc2oc3ccc(OCC(O)CSC45CC6CC(CC(C6)C4)C5)cc3c(=O)c2c1 (stereo not drawn) = 2.58
• CSCC(O)COc1ccc2oc3ccc(C(=O)O)cc3c(=O)c2c1 (stereo not drawn) = 2.81
• CC(C)SCC(O)COc1ccc2oc3ccc(C(=O)O)cc3c(=O)c2c1 (stereo not drawn) = 3.06
• O=C(O)c1ccc2oc3ccc(OCC(O)COCC(F)(F)F)cc3c(=O)c2c1 (stereo not drawn) = 3.14
• CC(C)(C)SCC(O)COc1ccc2oc3ccc(C(=O)O)cc3c(=O)c2c1 (stereo not drawn) = 2.83
